Reference for the values: PubChem BioAssay (NCI)

# Test system: SF-268 CNS
# Measurement Notes: NCI tumour cell line growth inhibition, 48 h
Exercise: for every item that follows, state its recorded GI50.

Illustrative cases are given below, each with its answer.
                                   molecule  assay_result
0  CCN(CC)CCCC(C)Nc1c(C)cnc2cc(Cl)c(C)cc12 (stereo not given)       15.3 µM
1  CCS(=O)(=O)c1ccc(OC)c(Nc2ncc(-c3cccc(OC)c3)o2)c1       8.84 µM
2  CCN(CC)CCN1CC(O)=C(c2nc(-c3ccc(Cl)cc3)cs2)C1=N       1.87 µM
3  COc1cc(OC)c(/C=C/C(=O)c2c(OC)cccc2OC)c(OC)c1       1.14 µM

We now examine a further molecule.
State its GI50 for this molecule: "COc1cc(NC(=O)c2cc(O)c(CC=C(C)C)c(O)c2)cc2c1O[C@]1(C)CC[C@@H](O)C(C)(C)[C@H]1C2"
4.65 µM

----------
# Tested on: RXF 393 renal
# Measurement Notes: NCI tumour cell line growth inhibition, 48 h; in the data active means GI50 below about 0.43 µM; inactive means the rest
Thanks in advance; please answer with one of these: active, inactive

Study these solved cases before continuing.
>>> print(df.to_string())
                                   compound   study_target  answer_label
0  CC/C=C\C[C@@H]1C/C=C2/C(=O)C=C[C@H]2C/C=C\CCCC(=O)O1  RXF 393 renal      inactive
1   CCN(CC)c1ccc(C(=N)c2ccc(N(CC)CC)cc2)cc1  RXF 393 renal      inactive
2  CCOC(=O)c1cc(/C(=N\O)c2cc(OC)c(OC)c(OC)c2)n2cc(C)cc(C)c12  RXF 393 renal      inactive
3  COc1ccc(OC)c(/C=C/C(=O)N/N=C/c2ccc(Cl)cc2)c1  RXF 393 renal        active
4  CCN(CC)CCCC(C)Nc1c(C)cnc2cc(Cl)c(C)cc12 (centres undefined)  RXF 393 renal      inactive
5  COc1ccc2c(c1)C(=O)c1c-2n(CCCn2ccnc2)c(=O)c2ccccc12  RXF 393 renal      inactive

Field: outcome | Entry: "NC(N)=NCCCn1c2c(c3ccccc3c1=O)C(=O)c1ccccc1-2"
inactive

Field: outcome | Entry: "Cc1cc(C)c(C(=O)CC(=O)c2cccnc2)c(C)c1"
inactive

Field: outcome | Entry: CCC1(O)C(=O)OCc2c1cc1n(c2=O)Cc2cc3ccc(C=O)cc3nc2-1 (centres undefined)
inactive

Field: outcome | Entry: "O=C(Nc1ccc(Cl)cc1)c1cc(-c2ccc(F)cc2)c2sc(=O)[nH]c2n1"
inactive

Field: outcome | Entry: "Nc1ncc(-c2cnn(CCO)c2)c2scc(-c3ccc(NC(=O)Nc4cccc(F)c4)cc3)c12"
active

Field: outcome | Entry: CCC[CH2][Sn]1([CH2]CCC)[O]C(=O)C(C(C)C)N=Cc2ccccc2[O]1 (centres undefined)
active

Field: outcome | Entry: "CCN1C(=O)CNc2ncc(-c3ccc(-c4ncn[nH]4)nc3C)nc21"
active

Field: outcome | Entry: "O=C(CCl)Nc1ccc(Cl)cc1"
inactive

----------
# System: HOP-62 NSCLC
# Measurement Notes: NCI tumour cell line growth inhibition, 48 h; in the data active = GI50 below about 0.43 µM; inactive = the rest
Thanks in advance; please answer with one of these: active, inactive

                                   compound  answer_label
0  Fc1cc(F)c(COc2cc(Cn3cnc4c(Cl)nc(Cl)nc43)ccc2C23CC4CC(CC(C4)C2)C3)cc1F      inactive
1  CCOC(=O)c1c(CN2CCN(c3ccccc3)CC2)n(-c2ccccc2)c2cc(Br)c(O)cc12      inactive
2  NC(=S)N/N=C/c1ccc(OC(=O)COc2ccc(Cl)cc2)cn1      inactive
3  CC/C=C\C[C@@H]1C/C=C2/C(=O)C=C[C@H]2C/C=C\CCCC(=O)O1      inactive
4           O=C(N/N=C/c1cccc(O)c1O)c1ccccc1      inactive

Field: outcome | Entry: "CCS(=O)(=O)c1ccc(OC)c(Nc2ncc(-c3cccc(C(C)=O)c3)o2)c1"
inactive

Field: outcome | Entry: CCC1(O)C(=O)OCc2c1cc1n(c2=O)Cc2cc3ccc(C=O)cc3nc2-1 (configuration not stated)
inactive

Field: outcome | Entry: "Cc1cn2c(/C=C3/C(=O)N(C)c4ccccc43)c(C)nc2s1"
inactive

Field: outcome | Entry: "Cc1ccc(/C(=C/C=C(C#N)C#N)Sc2ccc(Cl)cc2)cc1"
inactive

Field: outcome | Entry: "CCC#CC[C@H]1C/C=C2/C(=O)C=C[C@@H]2C/C=C\CCCC(=O)O1"
inactive

Field: outcome | Entry: "NC(N)=NCCCn1c2c(c3ccccc3c1=O)C(=O)c1ccccc1-2"
inactive

Field: outcome | Entry: "CCOC(=O)c1cc(/C(=N\O)c2cc(OC)c(OC)c(OC)c2)n2cc(C)cc(C)c12"
inactive

Field: outcome | Entry: CCC[CH2][Sn]1([CH2]CCC)[O]C(=O)C(C(C)C)N=Cc2ccccc2[O]1 (configuration not stated)
inactive

Field: outcome | Entry: "O=C(c1cccc(O)c1O)c1cn(Cc2ccc(F)cc2)c2cccc(O)c12"
inactive

Field: outcome | Entry: COc1cc(C2=NN(C(C)=O)C(c3ccc(OC(C)=O)cc3OC(C)=O)O2)c(OC(C)=O)c2ccccc12 (configuration not stated)
inactive

Field: outcome | Entry: "NCCCC[C@@H]1NC(=O)[C@H]2CCCN2C(=O)[C@H](Cc2ccccc2)NC(=O)[C@H](Cc2ccccc2)CNC1=O"
inactive

Field: outcome | Entry: "COc1ccc2c(c1)C(=O)c1c-2n(CCCn2ccnc2)c(=O)c2ccccc12"
active
